Listing: inhibition of selected compounds
Target: Kir3.1/Kir3.4 (Homo sapiens) (UniProt P48549+P48544)
Test: Inhibition of GTPgammaS-induced activation of GIRK1/4 (unknown origin) expressed in HEK293 cells assessed as decrease in channel current at 1 uM after 2 mins at -40 mV holding potential by automated patch-clamp electrophysiology assay
Assay type: cell-based

>  <COMPOUND>
CC(=O)O[C@@H]1C=C[C@H]2[C@@H]3[C@]1(COC(=O)C(C)C)[C@H](OC(=O)c1ccccc1)[C@H]1[C@@H](OC(=O)C(C)C)[C@@H](C)C[C@]1(O)C(=O)[C@@]3(C)OC2(C)C

>  <inhibition / %>
21

$$$$
>  <COMPOUND>
CC(=O)O[C@@H]1[C@H]2[C@@H](OC(=O)c3ccccc3)[C@@H](C)C[C@]2(OC(C)=O)[C@@H](OC(C)=O)[C@]2(C)OC[C@]13C(=O)C=C[C@H](C(C)(C)OC(C)=O)[C@@H]23

>  <inhibition / %>
43

$$$$
>  <COMPOUND>
CCC(C)C(=O)O[C@H]1C(=O)[C@@]23CO[C@@](C)([C@H](OC(C)=O)[C@@]4(OC(C)=O)C[C@H](C)[C@H](OC(=O)c5cccnc5)[C@@H]4[C@H]2OC(C)=O)[C@@H]3[C@@H]2[C@H]1C[C@]2(C)OC(C)=O (stereo partly drawn)

>  <inhibition / %>
31

$$$$
>  <COMPOUND>
CCC(=O)O[C@@H]1[C@@H]2[C@@H](OC(C)=O)[C@@]34CO[C@@](C)([C@H](OC(C)=O)[C@@]2(OC(C)=O)C[C@]1(C)OC(=O)c1ccccc1)[C@@H]3[C@@H]1[C@@H](C[C@]1(C)OC(C)=O)[C@@H](OC(=O)C(C)CC)C4=O (stereo partly drawn)

>  <inhibition / %>
20

$$$$
>  <COMPOUND>
CCC(=O)O[C@@H]1[C@@H]2[C@@H](OC(=O)c3ccccc3)[C@@]3(COC(=O)C(C)C)[C@H]4[C@H](C=C[C@H]3OC(C)=O)C(C)(C)O[C@]4(C)C(=O)[C@@]2(OC(C)=O)C[C@@H]1C

>  <inhibition / %>
21

$$$$
>  <COMPOUND>
CC(=O)O[C@@H]1[C@H]2[C@@H](OC(=O)C(C)C)[C@@](C)(OC(=O)c3ccccc3)C[C@]2(OC(C)=O)[C@@H](OC(C)=O)[C@]2(C)OC[C@]13C(=O)[C@H](OC(=O)C(C)C)[C@@H]1C[C@](C)(OC(C)=O)[C@@H]1[C@@H]23

>  <inhibition / %>
33

$$$$
>  <COMPOUND>
CCC(=O)O[C@@H]1[C@@H]2[C@@H](OC(C)=O)[C@@]34CO[C@@](C)([C@H](OC(C)=O)[C@@]2(OC(C)=O)C[C@]1(C)OC(=O)c1cccnc1)[C@@H]3[C@@H]1[C@@H](C[C@]1(C)OC(C)=O)[C@@H](OC(=O)C(C)C)C4=O

>  <inhibition / %>
35

$$$$
>  <COMPOUND>
CCC(C)C(=O)O[C@H]1C(=O)[C@@]23CO[C@@](C)([C@H](OC(C)=O)[C@@]4(OC(C)=O)C[C@](C)(OC(=O)c5cccnc5)[C@H](OC(=O)C(C)C)[C@@H]4[C@H]2OC(C)=O)[C@@H]3[C@@H]2[C@H]1C[C@]2(C)OC(C)=O (stereo partly drawn)

>  <inhibition / %>
23

$$$$
